System: TO-N3-2 (biotin conjugate)
Test: pull-down binding Z-score (relative to library population); higher = stronger binding
Settings: RNA library: Library-2
Below: a set of entries, each annotated with reported pull-down binding Z-score.
parameter-measured: pull-down binding Z-score

{"query-sequence": "CCAGUGCUGGGCUCAGACCCUGG [hsa-mir-150]", "assay-result": 0.701}
{"query-sequence": "UAGAGGUACAACAGUACUUUUA", "assay-result": -1.28}
{"query-sequence": "CACACGCUUUAUUUGUGCCGUUUG [hsa-mir-758]", "assay-result": -0.655}
{"query-sequence": "CCUAGUGGCUAGCCCUGGGUCUAGCAGCCUAUGGCAGUGUCUGGUAAACACUGGUGGAGUCCUGGG [hsa-mir-6745]", "assay-result": 1.22}
{"query-sequence": "CUCAGUCCAAGAUGGUAUUUCUACUACCUAGGAACUGGG [SHAPE_invivo_SARS-CoV-2_Motif_544]", "assay-result": -0.627}

====

Test system: TO-3-N3-2 (biotin conjugate)
Assay: pull-down binding Z-score (relative to library population); higher = stronger binding
Details: RNA library: Library-2

{"query-sequence": "CAAGUUAUCACUGAGCGACUUC [hsa-mir-4664]", "pull-down binding Z-score": -0.235}
{"query-sequence": "GCCUCCUGGAUCUCUAGGUCUCAGGGC [hsa-mir-6744]", "pull-down binding Z-score": -0.302}
{"query-sequence": "CAGGCAAGAAGGAUACUUACCUG [U1snRNP5ss-25]", "pull-down binding Z-score": -0.366}
{"query-sequence": "UUGUGGCUUUGGGUGGAUAUUAAUCAGCCACAG [hsa-mir-383]", "pull-down binding Z-score": 0.274}
{"query-sequence": "GCGCUGCCAGAAACUGGCUCAGCGC [bulge-UC]", "pull-down binding Z-score": -0.576}
{"query-sequence": "CCGAGUGAUCUCGGU [hsa-mir-8071-1_8071-2]", "pull-down binding Z-score": -0.324}
{"query-sequence": "CUCCUUUGAUGGUUGCAUACAUGUUGGAG [IAV_invivo_PB2_1_Motif_8+IAV_invivo_PB2_1_Motif_8]", "pull-down binding Z-score": -0.208}
{"query-sequence": "GAAGGUCUUAAUGACAACCUUC [SHAPE_invitro_SARS-CoV-2_Motif_33]", "pull-down binding Z-score": -0.502}
{"query-sequence": "GCUUCUCUUUCUCACCAGCAGC [hsa-mir-4467]", "pull-down binding Z-score": 0.152}
{"query-sequence": "CUAUAGUAGCUGGUGGUAUUGUAGCUAUCGUAG [SHAPE_invitro_SARS-CoV-2_Motif_182]", "pull-down binding Z-score": 0.54}

====

Below: a set of entries, each annotated with reported pull-down binding Z-score.
Test system: TO-3-N3-2 (biotin conjugate)
Assay: pull-down binding Z-score (relative to library population); higher = stronger binding
Conditions: RNA library: Library-2

{"query-sequence": "AGUUCAAGAACUUUACUCUCCAAUUUUUCUUAUUGUUGCGGCAAUAGUGUUUAUAACACUUUGCUUCACACUCAAAAGAAAGACAGAAUGAUUGAACU", "pull-down binding Z-score": -0.46}
{"query-sequence": "AGGACACAGGCUGGCACUGAGGUCCC [hsa-mir-6887]", "pull-down binding Z-score": -0.0807}
{"query-sequence": "GCAGUCUGCUUUGUGCCAACACUGGGGUGAUGACUGC [hsa-mir-3157]", "pull-down binding Z-score": -0.203}
{"query-sequence": "GAAGCGAGAUGUUUGUCUAAA [hsa-mir-6835]", "pull-down binding Z-score": 0.262}
{"query-sequence": "UUUGCUACUGAAAGUAAUGGCAAA [hsa-mir-548z]", "pull-down binding Z-score": -0.468}
{"query-sequence": "CCUAUCAAUGG [IAV_invivo_PB2_1_Motif_26+IAV_invivo_PB2_1_Motif_26]", "pull-down binding Z-score": -0.212}
{"query-sequence": "AGAGUCCUGUUGUUGUAAGAUAGUGUCU [hsa-mir-550a-3]", "pull-down binding Z-score": -0.265}
{"query-sequence": "CAAUCAUGUGUAAUUAGAUAUGAUUG [hsa-mir-514b]", "pull-down binding Z-score": -0.732}
{"query-sequence": "GCAUCCAGACAGCGGGCGAAUGC [hsa-mir-6836]", "pull-down binding Z-score": -0.113}
{"query-sequence": "AGUCACUUACACUACAUGUCACU [hsa-mir-892a]", "pull-down binding Z-score": -0.63}

====

Test system: TO-3-N3-2 (biotin conjugate)
Experiment: pull-down binding Z-score (relative to library population); higher = stronger binding
Settings: RNA library: Library-2
Below: a set of entries, each annotated with reported pull-down binding Z-score.

{"query-sequence": "GGCUUCAUCAAACAAUAUGGUGAUUGCC", "pull-down binding Z-score": -0.331}
{"query-sequence": "CUUCAUUAAAAGAAUUACUGCAAAAUGGUAUGAAUGGACGUACCAUAUUGGGUAGUGCUUUAUUAGAAG", "pull-down binding Z-score": -0.0236}
{"query-sequence": "CUCAGUCCAAGAUGGUAUUUCUACUACCUAGGAACUGGG [SHAPE_invivo_SARS-CoV-2_Motif_544]", "pull-down binding Z-score": -0.217}
{"query-sequence": "CCUAAAGUGAAGUAUUUAUACUUUAUUAAAGG [DMSMaPseq_invitro_SARS-CoV-2_Motif_232]", "pull-down binding Z-score": -0.181}
{"query-sequence": "UUAAACACGCUUGUUAAACAACUUAGCUCCAAUUUUGGUGCAAUUUCAAGUGUUUUAA [SHAPE_invivo_SARS-CoV-2_Motif_457]", "pull-down binding Z-score": -0.0371}
{"query-sequence": "GGGACUUAUGAUUAUCCC [IAV_invivo_HA_4_Motif_18+IAV_invivo_HA_4_Motif_18]", "pull-down binding Z-score": 0.126}
{"query-sequence": "GGUAUGGAUUCUGUUGUUUUGGCAACAUUCU [hsa-mir-8088]", "pull-down binding Z-score": 0.124}
{"query-sequence": "UAUUACAGAUCUUUACCAGGAGUUUUCUGUGGUG", "pull-down binding Z-score": -0.388}
{"query-sequence": "AUUGCUGGACGCUGCCCUGGGCAU [hsa-mir-25]", "pull-down binding Z-score": 0.488}
{"query-sequence": "CACUGAUUCAGUAAAAUACUCAGUG [hsa-mir-891a]", "pull-down binding Z-score": -0.845}
{"query-sequence": "AUAACAAUACUAGAUGGAAUUUCACAGUAUUCACUGAGACUCAUUGAUGCUAUGAUGUUCACAUCUGAUUUGGCUACUAACAAUCUAGUUGU", "pull-down binding Z-score": 0.176}
{"query-sequence": "CGGGACCAACGAGGAAAUGUACUACUGUCUCCCG [IAV_invivo_PB2_1_Motif_23+IAV_invivo_PB2_1_Motif_23]", "pull-down binding Z-score": 0.118}
{"query-sequence": "UGACUCAGAUCU [hsa-mir-759]", "pull-down binding Z-score": -0.249}
{"query-sequence": "CCUUCUACCAAGUUAAGCAUACUCAUUAGAAGG [hsa-mir-3914-2]", "pull-down binding Z-score": -0.151}
{"query-sequence": "CUGAACCCGUGGGUGAGGAGUGCAG [hsa-mir-4690]", "pull-down binding Z-score": 0.0142}
{"query-sequence": "UUUCUGUUGUCUAAAAGAAGAGAAA [hsa-mir-518a-2]", "pull-down binding Z-score": -0.0883}
{"query-sequence": "UGCCGACUACUAUAGCAAAGAAUACUGUUAAGAGUGUCGGUA", "pull-down binding Z-score": -0.206}
{"query-sequence": "GUGCUUGGGACAUUUGAUACCGCAC [IAV_invivo_PB2_1_Motif_30+IAV_invivo_PB2_1_Motif_30]", "pull-down binding Z-score": -0.147}
{"query-sequence": "ACUUCAGAUGCUUCAUGACA [hsa-mir-6865]", "pull-down binding Z-score": -0.117}
{"query-sequence": "GAAGCUCCUAUAGCUCCUGUAGCUUC [hsa-mir-578]", "pull-down binding Z-score": 0.166}
{"query-sequence": "GCGGGAGCCAGGCCGC [hsa-mir-3185]", "pull-down binding Z-score": 0.0586}
{"query-sequence": "CCCAAACUUGGAGCACUUGACCUUUGGC [hsa-mir-4687]", "pull-down binding Z-score": 0.268}
{"query-sequence": "CUGAGCUGGGUACUGCCUGUUCAG [hsa-mir-589]", "pull-down binding Z-score": 0.311}
{"query-sequence": "UUGAUGUCAGGUUAUCCCCAAGCAUAACCUCAC [hsa-mir-4639]", "pull-down binding Z-score": -0.186}
{"query-sequence": "GAGGUGGGAAGGCUGCCCCAAAUGGCCUCUAACAUCCCUUCCAGUCUCCUCCUC [hsa-mir-6127]", "pull-down binding Z-score": 0.23}
{"query-sequence": "GGCGCUGUCUUGAGACAUUCGCGCAGUGCA [hsa-mir-3177]", "pull-down binding Z-score": -0.209}
{"query-sequence": "CUUGAACAAUGGAACCUAGUAAUAGGUUUCCUAUUCCUUACAUGGAUUUGUCUUCUACAAUUUGCCUAUGCCAACAGG", "pull-down binding Z-score": -0.181}
{"query-sequence": "CCUAAUGGAUGG [IAV_invivo_NA_6_Motif_15+IAV_invivo_NA_6_Motif_15]", "pull-down binding Z-score": -0.746}
{"query-sequence": "AGGUUGGACAGCUGGUGCUGCAGCUU [SHAPE_invivo_SARS-CoV-2_Motif_420]", "pull-down binding Z-score": 0.159}
{"query-sequence": "GGAGGUUGCUAGUCAGGCUAGACAAAUGGUGCAAGCGAUGAGAACCAUUGGAACUCAUCCUAGCUCCAGUGCUGGUCUGAAAAAUGAUCUUC [IAV_invivo_M1_M2_7_Motif_15+IAV_invivo_M1_M2_7_Motif_15]", "pull-down binding Z-score": -0.816}
{"query-sequence": "UGGGGUUGGGGUUGGGGUUGGGGUUGGGGUUGGGGUUGGGGUUGGGGU [G4_r(UGGGGU)8]", "pull-down binding Z-score": 8.63}
{"query-sequence": "AGGUCAAAUCAAUGAUAUGAUUUUAUCU [SHAPE_invitro_SARS-CoV-2_Motif_388]", "pull-down binding Z-score": -0.624}
{"query-sequence": "UAAGAGUAAUAGCUCUCUAGGUUAUUAUGAAUA [hsa-mir-5692c-1]", "pull-down binding Z-score": 0.109}
{"query-sequence": "CUUUGUAUUGCAUAGACGGUGCUUUACUUACAAAGUCCUCAGAAUACAAAG", "pull-down binding Z-score": -0.719}
{"query-sequence": "GGAUGGUUACAGGACUAAGGAACAAUCCGUCC [IAV_invivo_HA_4_Motif_14+IAV_invivo_HA_4_Motif_14]", "pull-down binding Z-score": -0.14}
{"query-sequence": "ACAUUUGCAACCUGUGAAGAUGCAAAACUUUAAGUGU [hsa-mir-2053]", "pull-down binding Z-score": -0.262}
{"query-sequence": "AACACCAGUUUACUCAUUCUUACCUGGUGUU", "pull-down binding Z-score": -0.421}
